biological target: Nuclear receptor subfamily 1 group I member 2 (Homo sapiens) (UniProt O75469); assay: Human pregnane X receptor (PXR) small molecule agonists, qHTS assay (AID 1346982); conditions: PXR-Luc HepG2, CYP3A4 luciferase reporter, 24 h; series mostly up to 92.4 µM; further: nearly all actives have a fitted effect of over 35% in size; further: potency means the concentration at half of the fitted maximal effect
Sequence (O75469 whole entry, looked up): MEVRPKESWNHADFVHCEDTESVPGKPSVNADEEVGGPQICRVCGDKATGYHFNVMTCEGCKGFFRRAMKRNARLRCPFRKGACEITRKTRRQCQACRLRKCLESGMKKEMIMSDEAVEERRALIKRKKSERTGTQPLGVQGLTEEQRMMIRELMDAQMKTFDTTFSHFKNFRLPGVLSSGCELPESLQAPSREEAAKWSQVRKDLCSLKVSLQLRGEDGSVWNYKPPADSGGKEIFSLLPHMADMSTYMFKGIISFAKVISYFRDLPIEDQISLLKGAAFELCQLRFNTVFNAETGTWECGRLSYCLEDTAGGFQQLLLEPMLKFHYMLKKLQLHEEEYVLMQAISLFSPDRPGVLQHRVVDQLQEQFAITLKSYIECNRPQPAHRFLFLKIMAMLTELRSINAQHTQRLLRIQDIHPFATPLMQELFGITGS
Inconclusive results are not listed. Active and inactive are the calls of the source. The call rests on the fitted dose curve; in most records, active means well fitted activation curve with a large enough effect in the repeat runs; inconclusive means weak or mixed curves; inactive means no such curve, though single readings can be large or run the other way.
QUANTITY_MEASURED: Potency

Reference set (8 entries):
CC1=CCC(C(C)C)C=C1 (stereo not drawn): 30.6 µM (active)
CCOC(=O)CC(=O)c1cc(F)c(Cl)nc1Cl: inactive
CCCCOCCOCCOCCOCCO: inactive
CCOc1nc2cccc(C(=O)O)c2n1Cc1ccc(-c2ccccc2-c2nn[nH]n2)cc1: inactive
NCCCN(CCO)CCO: inactive
Nc1cnn([C@@H]2O[C@H](CO)[C@@H](O)[C@H]2O)c(=O)n1: inactive
OCCC1CCCCN1 (stereo not drawn): inactive
CC1(C)[C@H]2CC[C@]1(C)[C@H](O)C2: inactive

Summary for this compound, CCCCCCCCCCCCCCCBr : Potency is inactive

Potency recorded for this compound, C=C(C)C(=O)OCCOc1ccccc1 , is inactive

response.value for CC(C)CC=O (field: Potency) = inactive

Consider CC(=O)Nc1ccc(/C=N/NC(N)=S)cc1 . Its measured Potency is inactive

C=Cc1c(C)c2cc3[nH]c(cc4nc(cc5nc(cc1[nH]2)C(C)=C5CCC(=O)O)C(CCC(=O)O)=C4C)c(C)c3C=C yielded Potency of inactive

The value of Potency measured for the compound CC(CN)CCCN (stereo not drawn) turned out to be 24.3 µM (active)

Entry CCCC(=O)OCC ; Potency = inactive

Form field Potency, entry CC(C)(C)c1ccc(OCC2CO2)cc1 (stereo not drawn) : 35.1 µM (active)

The compound listed as O=C(O)c1cccc(N(Cc2cccnc2)c2ccc(OC(F)F)c(OC(F)F)c2)c1 shows Potency equal to 43.3 µM (active)

The compound CCCCCCCCN(C)C showed Potency equal to inactive
